TARGET OF ASSAY: GSPT1 (Homo sapiens, UniProt P15170+Q96SW2)
Sequence (P15170 whole entry): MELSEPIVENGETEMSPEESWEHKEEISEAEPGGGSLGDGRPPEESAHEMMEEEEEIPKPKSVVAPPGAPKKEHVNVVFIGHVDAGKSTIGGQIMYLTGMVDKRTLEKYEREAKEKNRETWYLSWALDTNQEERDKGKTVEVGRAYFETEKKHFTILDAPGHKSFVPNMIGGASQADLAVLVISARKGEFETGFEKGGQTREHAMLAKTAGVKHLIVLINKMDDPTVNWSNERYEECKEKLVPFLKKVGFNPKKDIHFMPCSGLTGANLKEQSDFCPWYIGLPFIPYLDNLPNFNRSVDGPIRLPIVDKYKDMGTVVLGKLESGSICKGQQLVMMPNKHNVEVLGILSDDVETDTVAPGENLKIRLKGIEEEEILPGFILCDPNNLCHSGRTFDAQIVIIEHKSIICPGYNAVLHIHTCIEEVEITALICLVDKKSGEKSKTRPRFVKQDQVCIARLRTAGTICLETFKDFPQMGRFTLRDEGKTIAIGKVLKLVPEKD
Sequence (Q96SW2 whole entry): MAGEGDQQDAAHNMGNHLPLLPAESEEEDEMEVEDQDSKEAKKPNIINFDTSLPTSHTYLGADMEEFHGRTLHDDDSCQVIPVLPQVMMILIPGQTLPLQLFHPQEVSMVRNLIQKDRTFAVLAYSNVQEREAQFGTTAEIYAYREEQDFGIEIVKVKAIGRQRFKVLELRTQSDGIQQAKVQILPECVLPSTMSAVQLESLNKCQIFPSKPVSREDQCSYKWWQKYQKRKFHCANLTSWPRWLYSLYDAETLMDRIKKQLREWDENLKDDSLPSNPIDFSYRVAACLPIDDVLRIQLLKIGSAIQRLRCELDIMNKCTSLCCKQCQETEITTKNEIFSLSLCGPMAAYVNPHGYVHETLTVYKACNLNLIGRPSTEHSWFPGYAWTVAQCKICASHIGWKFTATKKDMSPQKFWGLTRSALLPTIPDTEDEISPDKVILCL
Sequence (Q16531 whole entry partner): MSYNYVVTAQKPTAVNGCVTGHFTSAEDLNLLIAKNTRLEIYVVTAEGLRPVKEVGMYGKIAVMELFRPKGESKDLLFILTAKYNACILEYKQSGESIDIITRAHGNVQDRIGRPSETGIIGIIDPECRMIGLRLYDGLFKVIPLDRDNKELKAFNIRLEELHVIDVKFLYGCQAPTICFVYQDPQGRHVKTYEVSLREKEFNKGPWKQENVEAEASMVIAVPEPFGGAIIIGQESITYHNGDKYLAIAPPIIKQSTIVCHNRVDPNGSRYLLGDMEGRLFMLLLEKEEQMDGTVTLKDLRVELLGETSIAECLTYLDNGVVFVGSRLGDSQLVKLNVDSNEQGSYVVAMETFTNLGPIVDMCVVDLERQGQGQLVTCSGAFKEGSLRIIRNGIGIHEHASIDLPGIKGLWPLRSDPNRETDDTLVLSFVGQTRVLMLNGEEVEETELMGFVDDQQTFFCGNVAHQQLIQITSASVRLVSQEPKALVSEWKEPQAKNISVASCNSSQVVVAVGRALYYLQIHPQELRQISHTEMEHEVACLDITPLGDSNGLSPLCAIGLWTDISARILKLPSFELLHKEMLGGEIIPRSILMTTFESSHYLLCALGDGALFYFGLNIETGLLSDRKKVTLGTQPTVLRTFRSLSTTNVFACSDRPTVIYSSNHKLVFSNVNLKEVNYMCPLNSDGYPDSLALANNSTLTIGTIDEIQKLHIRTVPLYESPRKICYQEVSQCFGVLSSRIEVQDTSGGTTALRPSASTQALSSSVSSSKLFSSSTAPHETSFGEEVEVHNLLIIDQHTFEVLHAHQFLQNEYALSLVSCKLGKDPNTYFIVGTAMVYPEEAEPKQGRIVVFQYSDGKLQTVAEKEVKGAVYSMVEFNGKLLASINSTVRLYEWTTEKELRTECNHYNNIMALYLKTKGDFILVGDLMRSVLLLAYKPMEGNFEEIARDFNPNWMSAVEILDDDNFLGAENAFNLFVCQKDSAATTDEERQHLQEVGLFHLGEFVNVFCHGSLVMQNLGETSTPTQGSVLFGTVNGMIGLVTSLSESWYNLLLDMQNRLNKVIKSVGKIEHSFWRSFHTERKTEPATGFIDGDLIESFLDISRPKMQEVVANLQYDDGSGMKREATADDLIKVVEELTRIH
EXPERIMENT NOTES: Flow cytometry for measuring degradation, HEK293T GFP-POI reporter cells (GSPT1)
Format: cell-based
Set-up: expressed in transfected cells; host or cells: HEK293T
RUN PARAMETERS: 1 μM, 24 h, HEK293T GFP reporter
Parameter GSPT1% degradation at 1 μM: see the listing below.
ASSAY METRIC: GSPT1% degradation at 1 μM

[[record]]
compound = "O=C1CCC(N2Cc3cc(NC(=O)c4ccc5c(c4)CCCC5)ccc3C2=O)C(=O)N1 (centres unmarked)"
result = "4 ± 0.6%"

[[record]]
compound = "COc1cccc2c1C=C(C(=O)Nc1ccc3c(c1)CN(C1CCC(=O)NC1=O)C3=O)CO2 (centres unmarked)"
result = "44.3 ± 1.3%"

[[record]]
compound = "CC(=O)N1CCC[C@H]1C(=O)Nc1ccc2c(c1)CN(C1CCC(=O)NC1=O)C2=O (some centres unmarked)"
result = "10.1%"

[[record]]
compound = "O=C1CCC(N2Cc3cc(NC(=O)Cc4cccc5ccccc45)ccc3C2=O)C(=O)N1 (centres unmarked)"
result = "30.9 ± 1%"

[[record]]
compound = "O=C(/C=C/c1ccccc1)Nc1ccc2c(c1)CN(C1CCC(=O)NC1=O)C2=O (centres unmarked)"
result = "11.1 ± 1.3%"

[[record]]
compound = "O=C1CCC(N2Cc3cc(NC(=O)C4=Cc5cc(Br)cc(Br)c5OC4)ccc3C2=O)C(=O)N1 (centres unmarked)"
result = "9.2 ± 0.7%"

[[record]]
compound = "CC(=O)Nc1ccc2c(c1)CN(C1CCC(=O)NC1=O)C2=O (centres unmarked)"
result = "8.6 ± 0.8%"

[[record]]
compound = "O=C1CCC(N2Cc3cc(NC(=O)C4=Cc5ccccc5OC4)ccc3C2=O)C(=O)N1 (centres unmarked)"
result = "12.2 ± 1.9%"

[[record]]
compound = "C[C@H](NC(=O)c1ccccc1)C(=O)Nc1ccc2c(c1)CN(C1CCC(=O)NC1=O)C2=O (some centres unmarked)"
result = "6.2%"

[[record]]
compound = "CSc1ccc2cc(C(=O)Nc3ccc4c(c3)CN(C3CCC(=O)NC3=O)C4=O)ccc2c1 (centres unmarked)"
result = "24.8%"

[[record]]
compound = "COc1cc(C(=O)Nc2ccc3c(c2)CN(C2CCC(=O)NC2=O)C3=O)ccc1Oc1ccccc1 (centres unmarked)"
result = "21.3 ± 1.7%"

[[record]]
compound = "O=C1CCC(N2Cc3cc(NC(=O)C4=Cc5ccc(Br)cc5OC4)ccc3C2=O)C(=O)N1 (centres unmarked)"
result = "49 ± 0.8%"

[[record]]
compound = "COc1ccc(/C=C/C(=O)Nc2ccc3c(c2)CN(C2CCC(=O)NC2=O)C3=O)cc1 (centres unmarked)"
result = "16.5 ± 2%"

[[record]]
compound = "CN1C(=O)COc2cc(C(=O)Nc3ccc4c(c3)CN(C3CCC(=O)NC3=O)C4=O)ccc21 (centres unmarked)"
result = "13.2%"

[[record]]
compound = "O=C1CCC(N2Cc3cc(NC(=O)C4=COc5ccccc5O4)ccc3C2=O)C(=O)N1 (centres unmarked)"
result = "1.2 ± 0.3%"

[[record]]
compound = "O=C1CCC(N2Cc3cc(NC(=O)c4ccc5ncsc5c4)ccc3C2=O)C(=O)N1 (centres unmarked)"
result = "−0.9 ± 2.6%"

[[record]]
compound = "COc1ccc2c(CC(=O)Nc3ccc4c(c3)CN(C3CCC(=O)NC3=O)C4=O)cccc2c1 (centres unmarked)"
result = "41.9 ± 0.8%"

